Listed next: entries and their corresponding clearance.
test: Compound was tested for plasma clearance in rat; format: ADME, organism-based; details: read-out: Clp
// units = mL/min/kg; emit number, no label

Recorded clearance, per entry:
- molecule: "O=C(Nc1ccc(F)cc1)N[C@H]1C(=O)N(CC(=O)N2CCCC2)c2ccccc2N(C2CCCCC2)C1=O"
  quantity.unit: "mL/min/kg"
  quantitative.readout: 36
- molecule: "O=C(Nc1ccc(F)cc1)NC1C(=O)N(CC(=O)N2CCCC2)c2ccccc2N(c2ccccc2F)C1=O (stereo not drawn)"
  quantity.unit: "mL/min/kg"
  quantitative.readout: 15

Exercise: For the molecule shown here, O=C(Nc1ccc(F)cc1)NC1C(=O)N(CC(=O)N2CC3CCC(CC3)C2)c2ccccc2N(c2ccccc2F)C1=O (racemic) , give the reported clearance.
Solution: 28

Measured values drawn from ChEMBL document CHEMBL1149918 for this set.
